system: mouse B16 melanoma cells; assay: Melanin formation by mouse B16 melanoma cells cultured with test samples (melanin content, absorbance 450 nm); type: cell-based; details: Mus musculus, B16, 120 h, test sample 5 μM in liquid culture medium, 5 days; negative control = 100; read-out: Melanin formation percentage
attributeMeasured: activity at 5 µM (%)
Just the number please, in %, no unit attached.

Please review the entries below; each comes with its answer.
Nc1ncnc2c1ncn2[C@@H]1O[C@H](COP(=O)(O)OP(=O)(O)O)[C@@H](O)[C@H]1O [Adenosine 5′-diphosphate, adenosine 5′-diphosphate] ... 93
Nc1nc2c(ncn2[C@@H]2O[C@H](COP(=O)(O)OP(=O)(O)O)[C@@H](O)[C@H]2O)c(=O)[nH]1 [Guanosine 5′-diphosphate, guanosine 5′-diphosphate] ... 93
Nc1ncnc2c1ncn2[C@@H]1O[C@H](COP(=O)(O)O)[C@@H](O)[C@H]1O [Adenosine 5′-monophosphate, adenosine 5′-monophosphate] ... 100
Nc1nc2c(ncn2[C@@H]2O[C@H](CO)[C@@H](O)[C@H]2O)c(=O)[nH]1 [Guanosine, guanosine] ... 98
Nc1cc[nH]c(=O)n1 [Cytosine, reference compound] ... 98
O=c1cc[nH]c(=O)[nH]1 [Uracil, reference compound] ... 98

For the next question, use this molecule.
-- ask Item under review: Cc1c[nH]c(=O)[nH]c1=O [Thymine, reference compound] . Reported activity at 5 µM?
-- reply 99

Every entry's value here was drawn from patent US20140205553A1.
